molecular target: alpha7 nicotinic acetylcholine receptor (Rattus norvegicus, UniProt Q05941); test: Functional FLIPR assay (calcium), alpha7 nAChR stably expressed in GH4C1 cells; details: agonist, concentration range 0.001 to 30 microM
Sequence (Q05941 23-502): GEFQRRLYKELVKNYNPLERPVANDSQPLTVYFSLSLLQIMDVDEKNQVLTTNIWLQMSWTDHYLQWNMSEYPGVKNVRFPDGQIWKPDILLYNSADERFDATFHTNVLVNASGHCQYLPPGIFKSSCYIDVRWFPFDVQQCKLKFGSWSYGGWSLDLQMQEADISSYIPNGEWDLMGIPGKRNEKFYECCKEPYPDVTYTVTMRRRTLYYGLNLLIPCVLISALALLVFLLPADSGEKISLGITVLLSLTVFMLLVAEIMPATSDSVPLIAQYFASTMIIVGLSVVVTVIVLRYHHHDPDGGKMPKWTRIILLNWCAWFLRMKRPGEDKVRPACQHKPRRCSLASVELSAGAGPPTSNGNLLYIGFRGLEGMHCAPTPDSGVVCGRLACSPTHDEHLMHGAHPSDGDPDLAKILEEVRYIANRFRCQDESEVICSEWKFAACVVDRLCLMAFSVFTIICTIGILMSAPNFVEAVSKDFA
property-label: pEC50
pEC50 is defined as minus the log10 of a concentration measured in mol/L.

For the molecule `C[N+]1(C)CCN(c2ccccc2)CC1` , give its reported pEC50.
6.01
